Source listed as PubChem BioAssay.

# tgt: Fibroblast growth factor 10 (Homo sapiens)
# protocol_description: FGF10 binders on small-molecule microarrays, primary screen, biochemical, small-molecule microarray, 635 nm fluorescence (AID 1102)
# condition_parameters: FGF10 binding, fluorescence 635 nm, higher = more signal
Consider the following partition of reported composite z-score into named classes: zone 1 = under 0.2, zone 2 = from 0.2 up to 0.9, zone 3 = 0.9 and over

>>> label("COc1ccc(C#Cc2ccc3c(c2)[C@]2(C(=O)N3)[C@H](c3ccc(O)cc3)N3[C@H](c4ccccc4)[C@H](c4ccccc4)OC(=O)[C@H]3[C@@H]2C(=O)NC[C@H](O)c2ccccc2)cc1")
"zone 3"
>>> label("COC(=O)c1ccc(C23CC2(C(NP(=O)(c2ccccc2)c2ccccc2)c2ccccc2)C3)cc1 (stereo unspecified)")
"zone 2"
>>> label("CC(C)NC(=O)[C@@H]1c2ccccc2C(=O)N(Cc2ccccc2)[C@H]1c1ccc(CO)cc1")
"zone 2"
>>> label("Cc1ccc(S[C@]2(C(=O)NCCN3CCOCC3)CC(=O)N(Cc3cc(C(F)(F)F)cc(C(F)(F)F)c3)[C@@H]2c2ccc(CO)cc2I)cc1")
"zone 1"
>>> label("COc1cccc(C(=O)O[C@H]2CC[C@]3(C)C4=C(CCC3C2(C)C)[C@]2(C)CC[C@H]([C@H](C)CCCC(C)C)[C@@]2(C)CC4)c1 (stereo partly specified)")
"zone 2"
>>> label("COc1ccc(C#Cc2ccc3c(c2)[C@]2(C(=O)N3)[C@H](c3ccc(O)cc3)N3[C@H](c4ccccc4)[C@H](c4ccccc4)OC(=O)[C@H]3[C@@H]2C(=O)N2CCCCCCC2)cc1")
"zone 3"
>>> label("C=C(COC)/C(=C/C[C@H](OC(=O)c1ccncc1)c1cccc(OCCO)c1)c1cc(C(=O)OC)ccc1OC")
"zone 2"
>>> label("NC(=O)NCC#Cc1ccc2c(c1)[C@]1(C(=O)N2)[C@H](C(=O)N2CCCCCCC2)[C@H]2C(=O)O[C@H](c3ccccc3)[C@H](c3ccccc3)N2[C@@H]1c1ccc(OCCO)cc1")
"zone 3"
>>> label("[N-]=[N+]=NCc1ccccc1C[C@]1(C(=O)NCCN2CCOCC2)N=C(c2ccc(OCCCO)cc2)O[C@H]1c1ccccc1N=[N+]=[N-]")
"zone 2"
>>> label("O=C1N(CCS(=O)(=O)c2ccccc2)Cc2ccccc2[C@H]2OC(c3ccc(OCCCO)cc3)=N[C@@]12CCS(=O)(=O)c1ccccc1")
"zone 3"
>>> label("Cc1ccccc1C(O)C1C=CC2C(=O)N(C)C(=O)C2N1N1CCCCC1 (stereo unspecified)")
"zone 3"
>>> label("CCOC(=O)C1=CCC(c2ccc([N+](=O)[O-])cc2)N(S(=O)(=O)c2ccc(C)cc2)C1 (stereo unspecified)")
"zone 1"
>>> label("COCCCNC(=O)[C@@]1(C)c2ccccc2C(=O)N(Cc2cc(C(F)(F)F)cc(C(F)(F)F)c2)[C@H]1c1ccc(CO)cc1")
"zone 1"
>>> label("O=C1OCCC=C[C@H]2OC34C=CCN(Cc5ccccc5)C(=O)[C@H]3N(CCCCCCO)C(=O)[C@@H]4C12 (stereo partly specified)")
"zone 1"
>>> label("O=C1c2ccccc2[C@@]2(Cc3ccccc3N(Cc3ccccc3)C2=O)[C@H](c2ccc(CO)cc2)N1C1CCCCC1")
"zone 2"
>>> label("COc1ccc(C#Cc2ccc3c(c2)[C@]2(C(=O)N3)[C@H](C(=O)NC[C@H](O)c3ccccc3)[C@H]3C(=O)O[C@H](c4ccccc4)[C@H](c4ccccc4)N3[C@@H]2c2ccc(OCCO)cc2)cc1")
"zone 3"
>>> label("CCOC(=O)C[C@H]1[C@H](OC(=O)c2ccccc2-c2ccccc2)[C@@H](NC(=O)Cc2ccc(OC)cc2)c2cc(OCCCO)ccc2N1C(=O)c1ccccc1")
"zone 2"
>>> label("CC(=O)NCCCC[C@@H]1NC(=O)[C@@H]2C[C@H](C(=O)NCCCCN(C)C)[C@H](c3ccc(O)cc3)N2C1=O")
"zone 1"
>>> label("O=C1O[C@H](c2ccccc2)[C@H](c2ccccc2)N2[C@H]1[C@@H](C(=O)Nc1nc3ccccc3s1)[C@]1(C(=O)Nc3ccccc31)[C@H]2c1ccc(O)cc1")
"zone 3"
>>> label("CC(C)C(O)C1C=CC2C(=O)N(c3ccccc3)C(=O)C2N1Nc1ccc(C#N)cc1 (stereo unspecified)")
"zone 3"
>>> label("COC(=O)[C@@]1(Cc2ccc(OC)cc2)[C@H]2c3cc(C(=O)N(C)C)n(Cc4c(OC)[nH]cc(C)c4=O)c3C[C@H]2CN1C(=O)c1ccccc1")
"zone 1"
